TARGET DESC: T1, human amylin-3 (a) receptor (human, UniProt P30988 25-474; O60896 24-148)
T1 sequence (looked up) 1: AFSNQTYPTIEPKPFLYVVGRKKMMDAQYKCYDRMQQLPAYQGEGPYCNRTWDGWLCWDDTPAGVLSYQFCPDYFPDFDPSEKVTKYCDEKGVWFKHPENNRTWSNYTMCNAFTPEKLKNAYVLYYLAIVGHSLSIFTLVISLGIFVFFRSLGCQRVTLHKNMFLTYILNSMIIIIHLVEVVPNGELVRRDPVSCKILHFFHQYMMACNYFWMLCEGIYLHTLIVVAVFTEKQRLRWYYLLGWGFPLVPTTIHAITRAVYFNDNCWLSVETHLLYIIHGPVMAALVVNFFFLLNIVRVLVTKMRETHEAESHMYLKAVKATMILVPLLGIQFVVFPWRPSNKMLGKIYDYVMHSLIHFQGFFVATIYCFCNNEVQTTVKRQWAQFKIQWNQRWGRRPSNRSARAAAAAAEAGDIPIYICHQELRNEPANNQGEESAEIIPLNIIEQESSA
T1 sequence (looked up) 2: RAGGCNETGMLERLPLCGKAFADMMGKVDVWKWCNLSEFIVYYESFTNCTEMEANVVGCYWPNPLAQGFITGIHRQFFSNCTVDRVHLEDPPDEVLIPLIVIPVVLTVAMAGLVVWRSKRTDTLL
METHOD: cell-based or functional assay
Starred links: 1 amine or outer side, 2 acyl side, 3 side chain; linkers in the order of their positions; H or OH if unused. Non-standard residues stand in square brackets, D forms with d. Groups on a side chain read outwards from the residue. *: point of attachment. Decanoyl(10-O(3-COOH-Ph)) = O=C(O)c1cccc(OCCCCCCCCCC(=O)*)c1; C18 diacid = O=C(O)CCCCCCCCCCCCCCCCC(=O)*; γGlu = O=C(O)[C@H](CCC(=O)[*:2])N[*:1]; Desaminohistidyl = O=C(CCc1c[nH]cn1)*; AEEA = NCCOCCOCC(=O)O; Aib = CC(C)(N)C(=O)O
Listing of recorded Human AmyR3 potency [EC50 (pM)] by entry.
State just the number; it will be interpreted in pM.

Compound 0235 (peptide) peptide: H[Aib]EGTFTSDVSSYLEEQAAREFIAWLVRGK([AEEA-AEEA-γGlu-Decanoyl(10-O(3-COOH-Ph))])K([AEEA-AEEA-γGlu-Decanoyl(10-O(3-COOH-Ph))])GGGGASELSTAALGRLSAELHELATLPRTETGSGSP-NH2 :: 24

Item: Compound 0051 (peptide) peptide: [Desaminohistidyl]AEGTFTSDVSSYLEEQAAREFIAWLVRGRK([AEEA-AEEA-γGlu-C18 diacid])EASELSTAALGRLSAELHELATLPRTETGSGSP-NH2 | Human AmyR3 potency [EC50 (pM)]: 19.5
